- Tested on: Staphylococcus aureus
- measurement.notes: Antimicrobial activity against methicillin-resistant Staphylococcus aureus by agar dilution method
- Type: functional
Listed compounds paired with reported MIC

| smiles.record | unit.annotation | MIC |
| --- | --- | --- |
| Cc1cccc(S(=O)(=O)N2CCN(c3ccc(N4C[C@H](Cn5ccnn5)OC4=O)cc3F)CC2)c1 | µg/mL | 2 |
| O=C(c1ccccc1)N1CCN(c2ccc(N3C[C@H](Cn4ccnn4)OC3=O)cc2F)CC1 | µg/mL | 0.25 |
| O=C(C(=O)N1CCN(c2ccc(N3C[C@H](Cn4ccnn4)OC3=O)cc2F)CC1)c1cccs1 | µg/mL | 0.25 |
| O=C(c1cccc([N+](=O)[O-])c1)N1CCN(c2ccc(N3C[C@H](Cn4ccnn4)OC3=O)cc2F)CC1 | µg/mL | 0.25 |
| O=C(c1ccncc1)N1CCN(c2ccc(N3C[C@H](Cn4ccnn4)OC3=O)cc2F)CC1 | µg/mL | 0.5 |
| O=C(/C=C/c1ccccc1)N1CCN(c2ccc(N3C[C@H](Cn4ccnn4)OC3=O)cc2F)CC1 | µg/mL | 0.25 |
| O=C(c1ccc(Cl)cc1)N1CCN(c2ccc(N3C[C@H](Cn4ccnn4)OC3=O)cc2F)CC1 | µg/mL | 0.25 |
| O=C(c1ccccc1Cl)N1CCN(c2ccc(N3C[C@H](Cn4ccnn4)OC3=O)cc2F)CC1 | µg/mL | 0.5 |
| Cc1ccc(C(=O)N2CCN(c3ccc(N4C[C@H](Cn5ccnn5)OC4=O)cc3F)CC2)cc1 | µg/mL | 0.5 |
